- MEASURED ON: GST-tagged K-Ras mutant / His-tagged hSOS1 (Homo sapiens)
- PROCEDURE SUMMARY: HTRF assay, K-Ras mutant / SOS1 interaction
- Type: binding
- CONDITION: compound nos. 401-703; read-out: IC50 against mutant Kras
- Excerpt: This assay can be also used to assess a selective inhibition of a mutant Ras protein relative to a wildtype, or relative to a different mutant Ras protein. For example, the equilibrium interaction of wildtype Kras or K-Ras mutant (e.g., wildtype or a mutant thereof including those mentioned in Example 6) with SOS1 (e.g., hSOS1) can be assessed as a proxy or an indication for a subject compound's ability to bind and inhibit Ras protein. […]
pIC50: −log10 of the molar value.
I'd be grateful if you could share measured pIC50 for these entries.

Prompt: I would be grateful if you could share the reported pIC50 for Nc1nc2c(-c3c(Cl)cc4c(N5CCCCC(N)C5)nc(OC[C@@]56CCCN5C[C@H](F)C6)nc4c3F)ccc(F)c2s1 (stereo partly shown) [Compound 543] .
Response: > 6.30

Prompt: Please give the result for Nc1ccc(-c2ccccc2-c2c(Cl)cc3c(N4CCCCCC4)nc(OCC45CCCN4CCC5)nc3c2F)cc1 [Compound 450] too.
Response: < 6.30

Prompt: Now the compound Fc1c(-c2cccc3[nH]ncc23)ccc2c(N3CC4CCC(C3)N4)nc(OC[C@@]34CCCN3C[C@H](F)C4)nc12 [Compound 654]
Response: < 6.30

Prompt: Further, for COc1nc2c(N3C[C@H]4CC[C@@H](C3)N4)nc(OCC34CCCN3CCC4)nc2cc1-c1cc(O)cc2ccccc12 [Compound 545] ?
Response: < 6.30

----------
- MEASURED ON: GST-tagged K-Ras mutant / His-tagged hSOS1 (Homo sapiens, UniProt P01116)
- Sequence (P01116 whole entry G12D, form open): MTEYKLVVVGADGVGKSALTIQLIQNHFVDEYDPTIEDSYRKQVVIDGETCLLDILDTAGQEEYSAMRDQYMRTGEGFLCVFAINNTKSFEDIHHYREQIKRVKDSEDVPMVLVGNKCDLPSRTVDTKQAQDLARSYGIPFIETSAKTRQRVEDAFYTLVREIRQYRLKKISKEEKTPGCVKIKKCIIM
- PROCEDURE SUMMARY: HTRF assay, K-Ras mutant / SOS1 interaction
- Type: binding
- CONDITION: compound nos. 401-703; read-out: IC50 against mutant Kras
Exercise: for every item that follows, state its recorded IC50.

Prompt: What IC50 value was documented for this compound, `CN(C)CC1(COc2nc(N3CC4CCC(C3)N4)c3cc(Cl)c(-c4ccc(F)c5sc(N)nc45)c(F)c3n2)CC1` ?
Response: < 500 nM

Prompt: Would you kindly repeat that for `Nc1nc2c(-c3c(Cl)cc4c(N5CCNCC(F)(F)C5)nc(OCC5(CN6CCCC6)CC5)nc4c3F)ccc(F)c2s1` ?
Response: < 500 nM

Prompt: // same read-out, input: CN1CCC[C@H]1COc1nc(N2CCCC(NS(C)(=O)=O)CC2)c2cc(Cl)c(-c3cccc4sc(N)nc34)c(F)c2n1 (stereo partly shown)
Response: < 500 nM

Prompt: Now the same for `Cc1ccc(C#N)cc1-c1c(Cl)cc2c(N3CC4CCC(C3)N4)nc(OCC34CCCN3CCC4)nc2c1F`
Response: > 500 nM

Prompt: Next record, please: CN1CCCC1CCn1nc(N2CC3CCC(C2)N3)c2ccc(-c3ccc(F)c4sc(N)nc34)c(F)c2c1=O (stereo not shown)
Response: > 500 nM

Prompt: Now the compound `Nc1c(Cl)cccc1-c1c(Cl)cc2c(N3CC4CCC(C3)N4)nc(OCC34CCCN3CCC4)nc2c1F`
Response: > 500 nM

Prompt: What would you report for `Cc1ccc2oc(N)nc2c1-c1c(Cl)cc2c(N3CC4CCC(C3)N4)nc(OC[C@@]34CCCN3C[C@H](F)C4)nc2c1F` ?
Response: < 500 nM

----------
- MEASURED ON: GST-tagged K-Ras mutant / His-tagged hSOS1 (Homo sapiens, UniProt P01116)
- PROCEDURE SUMMARY: HTRF assay, K-Ras mutant / SOS1 interaction
- Type: binding
- CONDITION: compound nos. 301-306; read-out: IC50 against mutant Kras
pIC50: −log10 of the molar value.
Would you kindly list pIC50 for each of these compounds?

Prompt: # get_value(readout= pIC50, system= GST-tagged K-Ras mutant / His-tagged hSOS1 (Homo sapiens, UniProt P01116)) for `CN1CCC[C@H]1COc1nc(N2[C@@H]3CC[C@H]2CNC3)c2cc(Cl)c(-c3cccc4sc(N)nc34)c(F)c2n1`
Response: > 5.82

Prompt: Follow-up entry: `Nc1nc2c(-c3c(Cl)cc4c(N5[C@@H]6CC[C@H]5CNC6)nc(OC[C@@]56CCCN5C[C@H](F)C6)nc4c3F)ccc(F)c2s1`
Response: > 5.82

Prompt: Repeat with `Nc1nc2c(-c3c(Cl)cc4c(N5[C@@H]6CC[C@H]5CC(F)(F)C6)nc(OC[C@@]56CCCN5C[C@H](F)C6)nc4c3F)ccc(F)c2s1`
Response: < 5.82

Prompt: Try this compound too: Nc1nc2c(-c3c(Cl)cc4c(N5[C@@H]6CC[C@H]5CC(F)C6)nc(OC[C@@]56CCCN5C[C@H](F)C6)nc4c3F)ccc(F)c2s1 (stereo partly drawn)
Response: > 5.82

Prompt: Moving on to `Nc1nc2c(-c3c(Cl)cc4c(N5[C@@H]6CCC[C@H]5C[C@H](O)C6)nc(OC[C@@]56CCCN5C[C@H](F)C6)nc4c3F)ccc(F)c2s1`
Response: > 5.82

Prompt: Request: `Nc1nc2c(-c3c(Cl)cc4c(N5C6CCCC5CNC6)nc(OC[C@@]56CCCN5C[C@H](F)C6)nc4c3F)ccc(F)c2s1`
Response: > 5.82

----------
- MEASURED ON: wildtype Kras / hSOS1 (Homo sapiens)
- Construct: made in house; host or cells: E. coli BL21 (DE3)
- Sequence (P01116 1-188 isoform P01116-2): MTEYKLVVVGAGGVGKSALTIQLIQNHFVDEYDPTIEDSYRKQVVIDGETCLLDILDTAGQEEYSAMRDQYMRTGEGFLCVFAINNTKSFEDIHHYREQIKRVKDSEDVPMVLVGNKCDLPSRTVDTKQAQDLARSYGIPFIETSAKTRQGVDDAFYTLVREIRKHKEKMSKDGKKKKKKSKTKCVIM
- PROCEDURE SUMMARY: HTRF assay, wildtype Kras / SOS1 interaction
- Assay type: binding
- CONDITION: compound nos. 401-703; read-out: IC50 against wildtype Kras
pIC50: −log10 of the molar value.
Give measured pIC50 for each item. Keep answers brief.

Prompt: Which value of pIC50 has been reported for `N#Cc1n[nH]c2c(F)ccc(-c3c(Cl)cc4c(N5CC6CCC(C5)N6)nc(OC[C@@]56CCCN5C[C@H](F)C6)nc4c3F)c12` in the records?
Response: < 6.30

Prompt: Also Nc1nc2c(-c3c(Cl)cc4c(N5CCCC(N)CC5)nc(OC[C@@]56CCCN5C[C@H](F)C6)nc4c3F)ccc(F)c2s1 (stereo partly drawn) ?
Response: > 6.30

Prompt: Now consider COC1CCCCN(c2nc(OC[C@@H]3CCCN3C)nc3c(F)c(-c4cccc5sc(N)nc45)c(Cl)cc23)C1 (stereo partly drawn) [Compound 474] and answer again.
Response: > 6.30

Prompt: // next record `Cc1nc(N2CCCCCC2)c2cc(Cl)c(-c3cccc4sc(N)nc34)cc2n1`
Response: < 6.30

Prompt: Here is the next molecule: `CN(C)C/C=C/C(=O)N1CC2(CCCN(c3nc(OC[C@@]45CCCN4C[C@H](F)C5)nc4c(F)c(-c5ccc(F)c6sc(N)c(C#N)c56)c(Cl)cc34)C2)C1`
Response: < 6.30

Prompt: And what about the molecule Nc1nc2c(-c3c(Cl)cc4c(N5CCCCC(N)C5)nc(OC[C@@]56CCCN5C[C@H](F)C6)nc4c3F)ccc(F)c2s1 (stereo partly drawn) ?
Response: < 6.30

----------
Can you tell me pIC50 for the items I'm about to list?
- MEASURED ON: GST-tagged K-Ras mutant / His-tagged hSOS1 (Homo sapiens, UniProt P01116)
- PROCEDURE SUMMARY: HTRF assay, K-Ras mutant / SOS1 interaction
- Format: binding
- CONDITION: compound nos. 401-703; read-out: IC50 against mutant Kras
- From the text: This assay can be also used to assess a selective inhibition of a mutant Ras protein relative to a wildtype, or relative to a different mutant Ras protein. For example, the equilibrium interaction of wildtype Kras or K-Ras mutant (e.g., wildtype or a mutant thereof including those mentioned in Example 6) with SOS1 (e.g., hSOS1) can be assessed as a proxy or an indication for a subject compound's ability to bind and inhibit Ras protein. […]
pIC50: −log10 of the molar value.

Prompt: Requested field: pIC50. Item: Nc1nc2c(-c3c(Cl)cc4c(N5CC6CCCC5CN6)nc(OC[C@@]56CCCN5C[C@H](F)C6)nc4c3F)ccc(F)c2s1 (stereo partly drawn)
Response: > 6.30

Prompt: Also need CN1CCC[C@H]1COc1nc(N2CCCC(F)C(F)C2)c2cc(Cl)c(-c3cccc4sc(N)nc34)c(F)c2n1 (stereo partly drawn) , thanks.
Response: > 6.30

Prompt: Try this compound too: CN1CCC[C@H]1COc1nc(N2CCCC(n3ccnc3)CC2)c2cc(Cl)c(-c3cccc4sc(N)nc34)c(F)c2n1 (stereo partly drawn) [Compound 490]
Response: < 6.30

Prompt: Query `CC(C)CCN1[C@@H]2CC[C@H]1CN(c1nc(OCC34CCCN3CCC4)nc3c(F)c(-c4ccc(F)c5sc(N)nc45)c(Cl)cc13)C2` next
Response: > 6.30

Prompt: Also need `C#Cc1cccc2cc(O)cc(-c3ccc4c(N5CCNCC(F)(F)C5)nc(OC[C@@]56CCCN5C[C@H](F)C6)nc4c3F)c12` , thanks.
Response: > 6.30

Prompt: Same again, this time with `Fc1c(-c2cccc3c2CCCS3)c(Cl)cc2c(N3CC4CCC(C3)N4)nc(OC[C@@]34CCCN3C[C@H](F)C4)nc12`
Response: < 6.30
